Molecular target: DNA gyrase (Escherichia coli, UniProt P0AES6)
Construct: supercoiling of relaxed pUC18 plasmid
Assay: Inhibition of DNA gyrase activity (DNA gyrase supercoiling assay)
Assay type: biochemical, E. coli H560
Details: relaxed PUC18 substrate
Each entry below carries its reported maximum non-effective concentration of the test compound (MNC).
# number only, unit µg/mL dropped from output

Example molecules with recorded maximum non-effective concentration of the test compound (MNC):
> print(dat)
                                smiles.data    uom  measurement
1  COC(=O)[C@@H]1CSCc2c(O)cc(O)c(C)c2C(=O)OC[C@H](N)C(=O)N1  µg/mL            2
2  Cc1c(O)cc(O)c2c1C(=O)OC[C@H](NC(=O)OC(C)(C)C)C(=O)N[C@H](C(=O)O)CSC2  µg/mL            5
3  Cc1c(O)cc(O)c2c1C(=O)OC[C@H](NC(=O)[C@@H]1[C@H](O)CCN1C(=O)[C@@H](N)CO)C(=O)N[C@H](C(=O)N[C@@H](C)C(=O)O)CSC2  µg/mL            5

// below: maximum non-effective concentration of the test compound (MNC) requested for another molecule
Consider the molecule `CCOC(=O)[C@@H]1CSCc2c(O)cc(OC)c(C)c2C(=O)OC[C@H](NC(C)=S)C(=O)N1` and give its measured maximum non-effective concentration of the test compound (MNC).
0.25

====

Each entry below carries its reported MIC.
System: E. coli B
Test: Antibacterial activity in vitro (MIC, agar dilution)
Type: cell-based
Conditions: Escherichia coli, agar dilution (BB2 + 1% Isovitalex + 7.5% sheep blood + metadione), inoculum 10^4 CFU/spot, read-out: minimum inhibitory concentration (MIC)
# number only, unit µg/mL dropped from output

Example compounds with recorded MIC:
> print(dat)
                                smiles.data  measurement
1  COC(=O)[C@@H]1CSCc2c(O)cc(OC)cc2C(=O)OCCC(=S)N1           64
2  CCOC(=O)[C@@H]1CSCc2c(O)cc(OC)c(C)c2C(=O)OC[C@H](NC(C)=S)C(=O)N1           64
3  COC(=O)[C@@H]1CSCc2c(O)cc(OC)c(C)c2C(=O)OC[C@H](O)C(=O)N1          128

Consider the compound `CCOC(=O)[C@@H]1CSCc2c(O)cc(OC)c(C)c2C(=O)OC[C@H](NC=O)C(=O)N1` and give its measured MIC.
32

Consider the compound `COC(=O)N[C@H]1COC(=O)c2c(C)c(OC)cc(O)c2CSC[C@@H](C(=O)OC)NC1=O` and give its measured MIC.
64

====

Each entry below carries its reported maximum non-effective concentration of the test compound (MNC).
Target: DNA gyrase (Escherichia coli, UniProt P0AES6)
Construct: supercoiling of relaxed pUC18 plasmid
Assay: Inhibition of DNA gyrase activity (DNA gyrase supercoiling assay)
Format: biochemical, E. coli H560
Conditions: relaxed PUC18 substrate
Protocol: The inhibition of DNA gyrase activity was measured using a DNA gyrase supercoiling assay according to R. Otter & N. Cozzarelli:Methods in Enzymology, Vol. 100, pp 171-180 (1983). DNA gyrase was isolated from E. coli H560, and relaxed PUC18 plasmed was used as substrate. The activities as regards inhibition of DNA gyrase activity, expressed as maximum non-effective concentration of the test compound (MNC in μg/ml) are compiled in the following Table 4: […]
# number only, unit µg/mL dropped from output

Example molecules with recorded maximum non-effective concentration of the test compound (MNC):
> print(dat)
                                smiles.data    uom  measurement
1  COC(=O)[C@@H]1CSCc2c(OC(C)=O)cc(OC(C)=O)c(C)c2C(=O)OC[C@H](N)C(=O)N1  µg/mL           10
2  COC(=O)[C@@H]1CSCc2c(O)cc(OC)c(C)c2C(=O)OC[C@H](O)C(=O)N1  µg/mL          0.1

Consider the molecule `COC(=O)[C@@H]1CSCc2c(O)cc(OC)cc2C(=O)OCCC(=S)N1` and give its measured maximum non-effective concentration of the test compound (MNC).
0.1

====

Test system: S. pyogenes 15
Test: Antibacterial activity in vitro (MIC, agar dilution)
Assay type: cell-based
Conditions: Streptococcus pyogenes, agar dilution (BB2 + 1% Isovitalex + 7.5% sheep blood + metadione), inoculum 10^4 CFU/spot, read-out: minimum inhibitory concentration (MIC)
ENDPOINT_NAME: MIC (µg/mL)
# number only, unit µg/mL dropped from output

Example compounds with recorded MIC:
> print(dat)
                                smiles.data  measurement
1  COC(=O)[C@@H]1CSCc2c(O)cc(OC)cc2C(=O)OCCC(=S)N1           16
2  CCOC(=O)[C@@H]1CSCc2c(O)cc(OC)c(C)c2C(=O)OC[C@H](NC=O)C(=O)N1            4
3  C=CCNC(=O)[C@@H]1CSCc2c(O)cc(OC)c(C)c2C(=O)OC[C@H](NC(=O)OC(C)(C)C)C(=O)N1           16
4  CCOC(=O)[C@@H]1CSCc2c(O)cc(OC)c(C)c2C(=O)OC[C@H](NC(C)=S)C(=O)N1            8
5  COC(=O)N[C@H]1COC(=O)c2c(C)c(OC)cc(O)c2CSC[C@@H](C(=O)OC)NC1=O            8

// below: MIC requested for another compound
Consider the compound `COC(=O)[C@@H]1CSCc2c(O)cc(OC)c(C)c2C(=O)OC[C@H](O)C(=O)N1` and give its measured MIC.
16
